Tested on: Staphylococcus aureus
ASSAY PROCEDURE: In vitro minimum inhibitory concentration required to produce antibacterial activity against Staphylococcus aureus 743 MRSA
Type: functional
# key: entry, value: MIC
ASSAY ENDPOINT: MIC (µg/mL)

COMPOUND SMILES: Nc1nc(/C(=N/O)C(=O)N[C@@H]2C(=O)N3C(C(=O)O)=C(/C=C4\CCN(C5CC5)C4=O)CS[C@H]23)cs1
TARGET: Staphylococcus aureus
ASSAY ENDPOINT: MIC
EXPERIMENTAL RESULT: 8

COMPOUND SMILES: Nc1nc(/C(=N/O)C(=O)N[C@@H]2C(=O)N3C(C(=O)O)=C(/C=C4\CCN(CC(F)(F)F)C4=O)CS[C@H]23)cs1
TARGET: Staphylococcus aureus
ASSAY ENDPOINT: MIC
EXPERIMENTAL RESULT: 8

COMPOUND SMILES: C=CCO/N=C(\C(=O)N[C@@H]1C(=O)N2C(C(=O)O)=C(/C=C3\CCN(CC(F)(F)F)C3=O)CS[C@H]12)c1csc(N)n1
TARGET: Staphylococcus aureus
ASSAY ENDPOINT: MIC
EXPERIMENTAL RESULT: 4

COMPOUND SMILES: Nc1nc(/C(=N/O)C(=O)N[C@@H]2C(=O)N3C(C(=O)O)=C(/C=C4/CN(c5ccccc5)C4=O)CS[C@H]23)cs1
TARGET: Staphylococcus aureus
ASSAY ENDPOINT: MIC
EXPERIMENTAL RESULT: 2

---

Test system: Staphylococcus aureus
ASSAY PROCEDURE: In vitro minimum inhibitory concentration required to produce antibacterial activity against Staphylococcus aureus 743 MRSA
Format: functional
# key: entry, value: MIC

COMPOUND SMILES: CC(C)CO/N=C(\C(=O)N[C@@H]1C(=O)N2C(C(=O)O)=C(/C=C3\CCN(CC(F)(F)F)C3=O)CS[C@H]12)c1csc(N)n1
READOUT UNITS: µg/mL
CENSOR SYMBOL: =
MIC: 4

COMPOUND SMILES: Nc1nc(/C(=N/O)C(=O)N[C@@H]2C(=O)N3C(C(=O)O)=C(/C=C4\CCN(CC5CC5)C4=O)CS[C@H]23)cs1
READOUT UNITS: µg/mL
CENSOR SYMBOL: =
MIC: 16

COMPOUND SMILES: COc1cccc(N2CC/C(=C\C3=C(C(=O)O)N4C(=O)[C@@H](NC(=O)/C(=N\O)c5csc(N)n5)[C@H]4SC3)C2=O)c1
READOUT UNITS: µg/mL
CENSOR SYMBOL: =
MIC: 8

COMPOUND SMILES: Nc1nc(/C(=N/O)C(=O)N[C@@H]2C(=O)N3C(C(=O)O)=C(/C=C4\CCN(Cc5nn[nH]n5)C4=O)CS[C@H]23)cs1
READOUT UNITS: µg/mL
CENSOR SYMBOL: =
MIC: 32

COMPOUND SMILES: Nc1nc(/C(=N/O)C(=O)N[C@@H]2C(=O)N3C(C(=O)O)=C(/C=C4\CN(c5ccccc5)C4=O)CS[C@H]23)cs1
READOUT UNITS: µg/mL
CENSOR SYMBOL: =
MIC: 8

COMPOUND SMILES: Cc1cc(N2CC/C(=C\C3=C(C(=O)O)N4C(=O)[C@@H](NC(=O)/C(=N\O)c5csc(N)n5)[C@H]4SC3)C2=O)no1
READOUT UNITS: µg/mL
CENSOR SYMBOL: =
MIC: 8

COMPOUND SMILES: Nc1nc(/C(=N/O)C(=O)N[C@@H]2C(=O)N3C(C(=O)O)=C(/C=C4\CCN(c5cccnc5)C4=O)CS[C@H]23)cs1
READOUT UNITS: µg/mL
CENSOR SYMBOL: =
MIC: 8

COMPOUND SMILES: CO/N=C(\C(=O)N[C@@H]1C(=O)N2C(C(=O)O)=C(CSc3nc(=O)c(O)nn3C)CS[C@H]12)c1csc(N)n1
READOUT UNITS: µg/mL
CENSOR SYMBOL: >
MIC: 32

COMPOUND SMILES: Nc1nc(/C(=N/O)C(=O)N[C@@H]2C(=O)N3C(C(=O)O)=C(/C=C4\CCN(c5ccccc5)C4=O)CS[C@H]23)cs1
READOUT UNITS: µg/mL
CENSOR SYMBOL: =
MIC: 8

COMPOUND SMILES: Nc1nc(/C(=N/O)C(=O)N[C@@H]2C(=O)N3C(C(=O)O)=C(/C=C4/CCN(C5CC5)C4=O)CS[C@H]23)cs1
READOUT UNITS: µg/mL
CENSOR SYMBOL: =
MIC: 16

COMPOUND SMILES: Nc1nc(/C(=N/O)C(=O)N[C@@H]2C(=O)N3C(C(=O)O)=C(/C=C4\CCCN(c5ccccc5)C4=O)CS[C@H]23)cs1
READOUT UNITS: µg/mL
CENSOR SYMBOL: =
MIC: 32

COMPOUND SMILES: COc1cccc(CN2CC/C(=C\C3=C(C(=O)O)N4C(=O)[C@@H](NC(=O)/C(=N\O)c5csc(N)n5)[C@H]4SC3)C2=O)c1
READOUT UNITS: µg/mL
CENSOR SYMBOL: =
MIC: 8

COMPOUND SMILES: Nc1nc(/C(=N/O)C(=O)N[C@@H]2C(=O)N3C(C(=O)O)=C(/C=C4\CCN(O)C4=O)CS[C@H]23)cs1
READOUT UNITS: µg/mL
CENSOR SYMBOL: =
MIC: 16

COMPOUND SMILES: Nc1nc(/C(=N/OCCF)C(=O)N[C@@H]2C(=O)N3C(C(=O)O)=C(/C=C4\CCN(CC(F)(F)F)C4=O)CS[C@H]23)cs1
READOUT UNITS: µg/mL
CENSOR SYMBOL: =
MIC: 16

---

System: Staphylococcus aureus
ASSAY PROCEDURE: In vitro minimum inhibitory concentration required to produce antibacterial activity against Staphylococcus aureus 743 MRSA
Format: functional
ASSAY ENDPOINT: MIC (µg/mL)

COMPOUND SMILES: Nc1nc(/C(=N/O)C(=O)N[C@@H]2C(=O)N3C(C(=O)O)=C(/C=C4\CCN(c5cccc([N+](=O)[O-])c5)C4=O)CS[C@H]23)cs1
ASSAY ENDPOINT: MIC
READOUT UNITS: µg/mL
EXPERIMENTAL RESULT: 4
//
COMPOUND SMILES: C=CC1=C(C(=O)O)N2C(=O)[C@@H](NC(=O)/C(=N\O)c3csc(N)n3)[C@H]2SC1
ASSAY ENDPOINT: MIC
READOUT UNITS: µg/mL
EXPERIMENTAL RESULT: 16
//
COMPOUND SMILES: C=CCN1CC/C(=C\C2=C(C(=O)O)N3C(=O)[C@@H](NC(=O)/C(=N\O)c4csc(N)n4)[C@H]3SC2)C1=O
ASSAY ENDPOINT: MIC
READOUT UNITS: µg/mL
EXPERIMENTAL RESULT: 16
//
COMPOUND SMILES: CO/N=C(\C(=O)N[C@@H]1C(=O)N2C(C(=O)O)=C(/C=C3\CCN(CC(F)(F)F)C3=O)CS[C@H]12)c1csc(N)n1
ASSAY ENDPOINT: MIC
READOUT UNITS: µg/mL
EXPERIMENTAL RESULT: 8
